Tested on: HL-60 (acute myeloid leukemia)
Assay: IncuCyte real-time proliferation assay, HL-60
Format: cell-based
Condition label: HL-60, 72 h; * mean of two independent experiments ± SEM
Measurement type: IC50 (µM)
// units = µM; emit number, no label

## Task Missing value: IC50, HL-60 (acute myeloid leukemia), entry Cc1cc(C)n(-c2nnc3n2NC(c2ccco2)C(C(=O)c2ccc([N+](=O)[O-])cc2)S3)n1 (racemic) [Compound 5t] . Fill in?
## Result 74.5

## Task Request body: readout IC50, system HL-60 (acute myeloid leukemia), query COc1ccc(C(=O)C2Sc3nnc(-n4nc(C)cc4C)n3NC2c2ccco2)cc1 (racemic) [Compound 5q] . Return the value.
## Result 2

## Task Form: Entry = COc1ccc(C(=O)C2Sc3nnc(-n4nc(C)cc4C)n3NC2c2ccccc2Cl)cc1 (racemic) [Compound 5n] | System = HL-60 (acute myeloid leukemia) | IC50 = ____
## Result 71.2
